test system: neurotoxicity (rotarod); experiment: Neurotoxicity test (TOX), rotarod, mice; assay type: in vivo; settings: mouse, in vivo, 100 mg/kg
readout.kind: TOX, No. of animals exhibiting motor impairment/no. of used animals

# molecule, target, observed
measured = [
    ("Cc1cccc(C)c1OCCN(C)C(C)CO.Cl (racemic) [Compound 14]", "neurotoxicity (rotarod)", "8/8"),
    ("CCC(CO)NCCCOc1c(C)cccc1C.Cl (racemic) [Compound 55]", "neurotoxicity (rotarod)", "8/8"),
    ("CCC(CO)NCCOc1cc(C)ccc1C (centres unmarked) [Compound 8]", "neurotoxicity (rotarod)", "8/8"),
]

Below are some molecules; for each one, tell me its TOX, No. of animals exhibiting motor impairment/no. of used animals.
1. CCC(CO)NCCCOc1cccc(C)c1C (racemic) [Compound 48]
2. CCC(CO)NCCOc1cccc(C)c1C (centres unmarked) [Compound 2]
3. CCC(O)CNCCOc1cc(C)ccc1C (centres unmarked) [Compound 7]
4. Cc1cccc(OCCCNC(C)CO)c1C (racemic) [Compound 46]
5. CC[C@@H](CO)NCCOc1cc(C)cc(C)c1C [Compound 41]
6. Cc1cccc(C)c1OCCN[C@@H](C)CO [Compound 13]

Reply:
1. 8/8
2. 8/8
3. 8/8
4. 8/8
5. 7/8
6. 8/8
